Source: patent US20130251714A1

tgt: T1, cynomolgus CXCR5 (on cynomolgus B cells) (cynomolgus monkey, UniProt G8F5K4 1-372)
T1 construct: also called cyno CXCR5
T1 sequence: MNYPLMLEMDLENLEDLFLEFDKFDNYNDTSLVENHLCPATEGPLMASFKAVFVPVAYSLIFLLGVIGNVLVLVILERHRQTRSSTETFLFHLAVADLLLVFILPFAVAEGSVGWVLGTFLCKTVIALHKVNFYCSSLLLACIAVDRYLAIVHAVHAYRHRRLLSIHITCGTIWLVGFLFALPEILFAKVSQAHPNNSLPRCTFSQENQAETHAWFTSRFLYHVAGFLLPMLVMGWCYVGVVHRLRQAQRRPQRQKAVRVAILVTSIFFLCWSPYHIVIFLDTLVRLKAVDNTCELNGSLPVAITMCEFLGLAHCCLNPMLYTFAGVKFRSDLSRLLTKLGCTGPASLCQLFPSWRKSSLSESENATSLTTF
protocol description: FACS on cynomolgus PBMCs (CD20+ B cells)
value type: binding result

binder: 16D7-HC2-LC1 (antibody, V domains shown, Humanized 16D7 on an IgG4 backbone / kappa; also called Version 2) VH: EVQLKESGPGLVAPGGSLSITCTVSGFSLIDYGVNWIRQPPGKGLEWLGVIWGDGTTYYNAPLKGRLSISKDNSKSQVFLQMNSLKTDDTAMYYCARIVYWGQGTLVTVSS VL: DIVMTQAAPSVAVTPGASVSISCRSSKSLLHSSGKTYLYWFLQRPGQSPQLLIYRMSNLASGVPDRFSGSGSGTAFTLRISRVEAEDVGVYYCMQHLEYPYTFGGGTKLEIKR
value type: binding result
measured value: no binding

binder: 16D7-HC1-LC1 (antibody, V domains shown, Humanized 16D7 on an IgG4 backbone / kappa; also called Version1) VH: QVQLKESGPGLVAPSESLSITCTVSGFSLIDYGVNWIRQPPGKGLEWLGVIWGDGTTYYNPSLKSRLSISKDNSKSQVFLKVTSLTTDDTAMYYCARIVYWGQGTLVTVSA VL: DIVMTQAAPSVAVTPGASVSISCRSSKSLLHSSGKTYLYWFLQRPGQSPQLLIYRMSNLASGVPDRFSGSGSGTAFTLRISRVEAEDVGVYYCMQHLEYPYTFGGGTKLEIKR
value type: binding result
measured value: no binding

binder: 16D7-HC1-LC2 (antibody, V domains shown, Humanized 16D7 on an IgG4 backbone / kappa; also called Version3) VH: QVQLKESGPGLVAPSESLSITCTVSGFSLIDYGVNWIRQPPGKGLEWLGVIWGDGTTYYNPSLKSRLSISKDNSKSQVFLKVTSLTTDDTAMYYCARIVYWGQGTLVTVSA VL: DIVMTQAAPSVAVTPGASVSISCRSSKSLLHSSGKTYLYWFLQRPGQSPQLLIYRLSNLASGVPDRFSGSGSGTAFTLRISRVEAEDVGVYYCMQHLEYPYTFGGGTKLEIKR
value type: binding result
measured value: no binding
